target: hNOX1 (Homo sapiens (Human)); assay: ROS production measurement on hNOX1 membranes (Amplex Red fluorescence assay, assay 1); conditions: assay 1: membranes from CHO cells overexpressing hNox1, Amplex Red/HRP fluorescence, NADPH 30 μM; non linear regression (GraphPad Prism); read-out: Nox1 inhibitory constant Ki
Entries annotated with measured pKi
Keep it numeric: pKi is minus log10 of the concentration in mol/L.

Would you please look over these solved cases?
COc1cc(C(=O)Nc2nnc(-c3ccncc3)s2)ccc1O[C@H](CN(C)C)c1ccc(F)cc1    6.96
COc1cc(C(=O)Nc2nnc(-c3ccncn3)s2)ccc1O[C@@H](C)c1ccccn1    7.06
C[C@H](Nc1ccc(C(=O)Nc2nnc(-c3ccncc3)s2)cn1)c1ccccc1    7.11

Proceed to the following item.
Q: What pKi value was documented for this compound, CNc1cc(C(=O)Nc2nnc(-c3ccncc3)s2)cnc1O[C@@H](CCN(C)C)c1ccccc1 ?
Ans: 7.05

====

biological target: hNOX1 (Homo sapiens (Human), UniProt Q9Y5S8); experiment: ROS production measurement on hNOX1 membranes (Amplex Red fluorescence assay, assay 1); details: assay 1: membranes from CHO cells overexpressing hNox1, Amplex Red/HRP fluorescence, NADPH 30 μM; non linear regression (GraphPad Prism); read-out: Nox1 inhibitory constant Ki
Sequence (Q9Y5S8 whole entry): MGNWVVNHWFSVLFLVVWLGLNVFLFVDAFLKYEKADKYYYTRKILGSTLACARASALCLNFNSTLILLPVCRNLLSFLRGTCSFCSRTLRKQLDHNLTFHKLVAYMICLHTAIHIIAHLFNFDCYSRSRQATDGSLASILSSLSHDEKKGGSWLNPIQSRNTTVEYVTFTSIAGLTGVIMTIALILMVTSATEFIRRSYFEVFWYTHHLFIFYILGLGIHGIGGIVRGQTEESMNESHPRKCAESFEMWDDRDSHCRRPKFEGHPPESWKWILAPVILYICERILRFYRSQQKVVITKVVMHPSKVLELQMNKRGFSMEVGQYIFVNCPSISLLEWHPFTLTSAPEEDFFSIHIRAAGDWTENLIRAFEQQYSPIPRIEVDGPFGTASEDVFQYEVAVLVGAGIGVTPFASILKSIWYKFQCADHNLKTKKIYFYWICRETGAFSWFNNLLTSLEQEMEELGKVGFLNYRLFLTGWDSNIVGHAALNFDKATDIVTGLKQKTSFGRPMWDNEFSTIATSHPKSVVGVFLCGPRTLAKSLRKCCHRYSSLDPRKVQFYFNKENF
Sequence (P13498 whole entry partner): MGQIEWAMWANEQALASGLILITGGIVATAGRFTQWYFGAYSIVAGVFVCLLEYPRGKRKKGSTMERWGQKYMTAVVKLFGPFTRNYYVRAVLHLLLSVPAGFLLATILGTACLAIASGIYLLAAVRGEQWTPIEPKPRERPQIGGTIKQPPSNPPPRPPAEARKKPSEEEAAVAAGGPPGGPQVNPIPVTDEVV
reported-metric: log10 Ki (log10 of the value in µM)
Use the decimal logarithm of Ki (µM).

COc1cc(C(=O)Nc2nnc(-c3ccncc3F)s2)ccc1O[C@@H](C)c1ccccn1    -1.89
O=C(Nc1nnc(-c2ccncc2)s1)c1cnc(O[C@@H](CO)c2ccccc2)c(Cl)c1    -1.04
COc1cc(C(=O)Nc2nnc(-c3ccncc3)s2)cnc1O[C@@H](C)c1ccccn1    -1.46
COc1cc(C(=O)Nc2nnc(-c3ccncc3)s2)ccc1O[C@@H](CO)c1ccc(F)cc1    -1.62

Q: What log10 Ki value was documented for this compound, COc1cc(C(=O)Nc2nnc(-c3ccncc3)s2)ccc1OCc1ccc(C)cn1 ?
Ans: -1.00

Q: What log10 Ki value was documented for this compound, O=C(Nc1nnc(-c2ccncc2)s1)c1ccc(OC2CCc3ccccc32)nc1 (centres unmarked) ?
Ans: -1.33

Q: What log10 Ki value was documented for this compound, COc1cc(C(=O)Nc2nnc(-c3ccncc3)s2)ccc1OCc1cc(C)on1 ?
Ans: -1.11

Q: What log10 Ki value was documented for this compound, O=C(Nc1nnc(-c2ccncc2)s1)c1ccc(O[C@@H](CN2CCOCC2)c2ccccc2)nc1 ?
Ans: -1.00

Q: What log10 Ki value was documented for this compound, O=C(Nc1nnc(-c2ccncc2)s1)c1ccc(OCc2ccccc2)cc1F ?
Ans: -1.00

Q: What log10 Ki value was documented for this compound, COCCOc1cc(C(=O)Nc2nnc(-c3ccncc3)s2)ccc1OC(C)c1ccccc1 (centres unmarked) ?
Ans: -1.13

Q: What log10 Ki value was documented for this compound, Cc1nc(O[C@@H](C)c2ccccc2)ccc1C(=O)Nc1nnc(-c2ccncc2)s1 ?
Ans: -1.10

Q: What log10 Ki value was documented for this compound, COc1cc(C(=O)Nc2nnc(-c3ccncc3)s2)ccc1OCc1cc(C2CC2)on1 ?
Ans: -1.13

====

Target: hNOX1 (Homo sapiens (Human), UniProt Q9Y5S8)
Experiment: ROS production measurement on hNOX1 membranes (Amplex Red fluorescence assay, assay 1)
Assay type: biochemical
Conditions: assay 1: membranes from CHO cells overexpressing hNox1, Amplex Red/HRP fluorescence, NADPH 30 μM; non linear regression (GraphPad Prism); read-out: Nox1 inhibitory constant Ki
Description: Reactive oxygen species (ROS) production generated by hNOX1 enzyme was measured by fluorescence in both cellular and membrane-based assays using the Amplex® Red reagent. […] After resuspension in sonication buffer (11% sucrose, 120 mM NaCl, 1 mM EGTA in PBS, pH 7.4), cells were broken by sonication and centrifuged (200 g, 10 min). […] Protein concentration was determined with Bradford reagent. […] FLUOstar OPTIMA microplate reader was supplied by BMG Labtech (Germany). […]
reported-metric: pKi
Keep it numeric: pKi is minus log10 of the concentration in mol/L.

Would you please look over these solved cases?
COc1cc(C(=O)Nc2nnc(-c3ccncc3)s2)ccc1OCc1ccccc1F    7.28
COc1cc(C(=O)Nc2nnc(-c3ccncc3)s2)ccc1OC1Cc2ccccc2C1    7.66
COc1cc(C(=O)Nc2nnc(-c3ccncc3)s2)ccc1OC(c1ccccc1)C1CC1 (stereo not shown)    7.48

Q: What pKi value was documented for this compound, COc1cc(C(=O)Nc2nnc(-c3ccncc3F)s2)ccc1O[C@@H](CO)c1ccccc1 ?
Ans: 7.72

Q: What pKi value was documented for this compound, COc1cc(C(=O)Nc2nnc(-c3ccncc3)s2)ccc1OCCc1ccccc1 ?
Ans: 7.10

Q: What pKi value was documented for this compound, COc1ccc(CCCOc2ccc(C(=O)Nc3nnc(-c4ccncc4)s3)cn2)cc1 ?
Ans: 7.49

Q: What pKi value was documented for this compound, COCCNc1cc(C(=O)Nc2nnc(-c3ccncc3)s2)cnc1O[C@@H](C)c1ccccc1 ?
Ans: 7.74

Q: What pKi value was documented for this compound, C[C@H](Oc1ncc(C(=O)Nc2nnc(-c3ccncc3)s2)cc1NC1CCN(C)CC1)c1ccccc1 ?
Ans: 7.12

Q: What pKi value was documented for this compound, COc1cc(C(=O)Nc2nnc(-c3ccnc(C)c3)s2)ccc1O[C@@H](CN(C)C)c1ccccc1 ?
Ans: 6.96

Q: What pKi value was documented for this compound, COc1ccc(COc2ccc(C(=O)Nc3nnc(-c4ccncc4)s3)cc2OC)cc1 ?
Ans: 7.49

Q: What pKi value was documented for this compound, COc1cc(C(=O)Nc2nnc(-c3ccncc3)s2)ccc1O[C@@H](CO)c1ccccc1 ?
Ans: 7.66

Q: What pKi value was documented for this compound, COc1cc(C(=O)Nc2nnc(-c3ccncc3)s2)ccc1O[C@@H](CN1CCCC1)c1ccccc1 ?
Ans: 7.31

Q: What pKi value was documented for this compound, COc1cc(C(=O)Nc2nnc(-c3ccncc3)s2)ccc1O[C@H](CO)c1ccc(F)cc1 ?
Ans: 7.33

Q: What pKi value was documented for this compound, C[C@H](Oc1ncc(C(=O)Nc2nnc(-c3ccncc3)s2)cc1NCCO)c1ccccc1 ?
Ans: 7.29

====

target: hNOX1 (Homo sapiens (Human)); assay: ROS production measurement on hNOX1 membranes (Amplex Red fluorescence assay, assay 1); conditions: assay 1: membranes from CHO cells overexpressing hNox1, Amplex Red/HRP fluorescence, NADPH 30 μM; non linear regression (GraphPad Prism); read-out: Nox1 inhibitory constant Ki
reported-metric: pKi
Keep it numeric: pKi is minus log10 of the concentration in mol/L.

Would you please look over these solved cases?
CC(C)(O)[C@H](Oc1ncc(C(=O)Nc2nnc(-c3ccncc3)s2)cc1Cl)c1ccccc1 [Example 29]    7.19
COc1cc(C(=O)Nc2nnc(-c3ccncn3)s2)ccc1OCc1ccccc1 [(111)]    7.12
C[C@H](Oc1ncc(C(=O)Nc2nnc(-c3ccncc3)s2)cc1NCCN(C)C)c1ccccc1 [(51)]    7.68
COc1cc(C(=O)Nc2nnc(-c3ccncn3)s2)cnc1O[C@@H](CN(C)C)c1ccccc1 [(114)]    7.43
C[C@H](Oc1ncc(C(=O)Nc2nnc(-c3ccncc3)s2)cc1N1CCN(C)CC1)c1ccccc1 [(69)]    7.26

Q: What pKi value was documented for this molecule, CN(C)C(=O)[C@H](Cc1ccccc1)Oc1ccc(C(=O)Nc2nnc(-c3ccncc3)s2)cn1 [(174)] ?
Ans: 7.02

Q: What pKi value was documented for this molecule, COc1cc(C(=O)Nc2nnc(-c3ccncc3)s2)ccc1O[C@@H](CN(C)C)c1ccc(F)cc1 [(198)] ?
Ans: 7.60

Q: What pKi value was documented for this molecule, COc1cc(C(=O)Nc2nnc(-c3ccncc3)s2)ccc1OCc1nccn1C [Example 19] ?
Ans: 6.66

Q: What pKi value was documented for this molecule, C[C@H](Oc1ncc(C(=O)Nc2nnc(-c3ccncc3)s2)cc1NCCCN(C)C)c1ccccc1 [(63)] ?
Ans: 7.51

Q: What pKi value was documented for this molecule, Cc1cc(C(=O)Nc2nnc(-c3ccncc3)s2)cnc1O[C@@H](CN1CCOCC1)c1ccccc1 [(182)] ?
Ans: 7.43

Q: What pKi value was documented for this molecule, CC(Cc1ccccc1)Oc1ccc(C(=O)Nc2nnc(-c3ccncc3)s2)cn1 (centres unmarked) [Example 34] ?
Ans: 7.35

Q: What pKi value was documented for this molecule, O=C(Nc1nnc(-c2ccncc2)s1)c1ccc(O[C@@H](CN2CCC(F)(F)C2)c2ccccc2)nc1 [(187)] ?
Ans: 7.26

Q: What pKi value was documented for this molecule, COc1cc(C(=O)Nc2nnc(-c3ccncc3)s2)ccc1OCc1cccnc1C [(89)] ?
Ans: 7.04

Q: What pKi value was documented for this molecule, COc1cc(C(=O)Nc2nnc(-c3ccncc3)s2)ccc1OC1CCc2ncccc21 (centres unmarked) [(151)] ?
Ans: 7.82
